Biological target: Sulfhydryl oxidase 1 (Homo sapiens) (UniProt O00391)
Sequence (O00391 whole entry, looked up): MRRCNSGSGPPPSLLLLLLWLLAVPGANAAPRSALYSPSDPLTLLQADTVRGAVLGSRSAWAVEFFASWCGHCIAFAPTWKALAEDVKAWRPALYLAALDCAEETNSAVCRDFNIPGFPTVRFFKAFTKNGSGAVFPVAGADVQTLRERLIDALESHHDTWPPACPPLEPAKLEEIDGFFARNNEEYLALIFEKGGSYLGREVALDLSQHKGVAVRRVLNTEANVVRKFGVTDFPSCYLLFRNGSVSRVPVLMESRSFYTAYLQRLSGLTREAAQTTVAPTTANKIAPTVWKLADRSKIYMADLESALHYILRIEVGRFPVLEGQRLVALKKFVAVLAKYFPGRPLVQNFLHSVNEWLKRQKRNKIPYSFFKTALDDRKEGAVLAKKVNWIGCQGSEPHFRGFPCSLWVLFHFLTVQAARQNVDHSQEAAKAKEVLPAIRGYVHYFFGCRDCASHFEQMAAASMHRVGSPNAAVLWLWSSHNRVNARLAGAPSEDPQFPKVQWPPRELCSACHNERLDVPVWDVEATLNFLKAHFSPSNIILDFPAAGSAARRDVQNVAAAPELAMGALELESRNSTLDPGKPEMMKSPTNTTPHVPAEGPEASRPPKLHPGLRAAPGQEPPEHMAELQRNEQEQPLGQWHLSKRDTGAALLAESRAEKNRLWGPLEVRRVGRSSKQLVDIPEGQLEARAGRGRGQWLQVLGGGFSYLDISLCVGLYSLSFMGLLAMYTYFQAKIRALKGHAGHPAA
Assay: inhibition of human sulfhydryl oxidase QSOX1 – biochemical, HyperBlu H2O2 luminescence, HTS, primary screen (AID 1347420); note: values above 100% were filed as inconclusive
Details: recombinant QSOX1, HyperBlu H2O2 luminescence; at 12.5 µM; active compounds read high; active = any value above zero
Out of some 1,300 compounds screened, about 980 (75%) were called active. Not shown: some 4% with an inconclusive outcome. This is one part of the list.
API: response.call in label 1 (active), label 0 (inactive)

Check out these entries, answers already filled in.
molecule: CN1C2CC(OC(=O)[C@H](CO)c3ccccc3)CC1C1OC12 (stereo partly drawn)
category-label: label 1
--
molecule: O=C(O)COCCN1CCN(C(c2ccccc2)c2ccc(Cl)cc2)CC1 (stereo not drawn)
category-label: label 1
--
molecule: Cc1cc2c(C(C)C)c(O)c(O)c(C=O)c2c(O)c1-c1c(C)cc2c(C(C)C)c(O)c(O)c(C=O)c2c1O
category-label: label 1
--
molecule: Nc1c2c(nc3ccccc13)CCCC2O (stereo not drawn)
category-label: label 1

Record lookup: outcome of this test for `N#CC(C#N)=C(N)/C(C#N)=C/c1ccc(O)cc1` ?
label 1

Short answer needed: outcome of this test for `NCCNC(=O)c1ncsc1-c1cccc(F)c1` ?
label 0

I'd appreciate the recorded outcome for CN1C2CCC1CC(OC(=O)C(CO)c1ccccc1)C2 (stereo not drawn) from this test.
label 1

Given `O=c1[nH]c(=S)[nH]c(-c2ccccc2)c1Cc1c(O)ccc2ccccc12` , state the outcome it received in this test.
label 1

For `CC[C@H](NC(=O)c1c(C)c(-c2ccccc2)nc2ccccc12)c1ccccc1` , what call appears in the results of this test?
label 1

What did the test return for `O=c1cc(-c2ccccc2)[nH]c2nc(Cl)ccc12` ?
label 1

For `O=C(O)CN(CCN(CC(=O)O)CC(=O)O)CCN(CC(=O)O)CC(=O)O` , which call appears in the assay record?
label 1

// return assay outcome for `NC(N)=NCCCCN=C(N)N`
label 1

Which outcome did this test record for the molecule `O=c1[nH]c2cc([N+](=O)[O-])c([N+](=O)[O-])cc2[nH]c1=O` ?
label 1

What is the recorded call for this molecule in the test? `CC(C)C[C@H](NC(=O)[C@H](O)[C@H](N)Cc1ccccc1)C(=O)O`
label 0

For `NCCCCN=C(N)N` , what call appears in the results of this test?
label 1

I'd appreciate the recorded outcome for `CCCN(CC1CC1)c1nc(C)nc(Nc2c(Cl)cc(Cl)cc2Cl)c1Cl` from this test.
label 1

What did the test return for `NC(=O)NO` ?
label 1

Test call for this molecule, please: `CCN(CC)CCOC(=O)C1(C2CCCCC2)CCCCC1`
label 1

----------
For each record, write down the corresponding inhibition.
Molecular target: Sulfhydryl oxidase 1 (Homo sapiens)
Test: inhibition of human sulfhydryl oxidase QSOX1 – biochemical, HyperBlu H2O2 luminescence, HTS, primary screen (AID 1347420); note: values above 100% were filed as inconclusive
Settings: recombinant QSOX1, HyperBlu H2O2 luminescence; at 12.5 µM; active compounds read high; active = any value above zero
In all, about 1,300 compounds went through this assay and about 980 (75%) were called active. Inconclusive results (about 4%) are left out. The list shows a part of the results.
Numbers only, in %.

molecule: Fc1ccc([C@@H]2CCNC[C@H]2COc2ccc3c(c2)OCO3)cc1
unit-abbreviation: %
value: 15.8

molecule: CC1=C(CC(=O)O)c2cc(F)ccc2/C1=C\c1ccc(S(C)=O)cc1 (stereo not drawn)
unit-abbreviation: %
value: 14.1

Continue with the molecule presented below.
Give inhibition; test system Sulfhydryl oxidase 1 (Homo sapiens); molecule `CC(N)=NCCCC[C@@H](N)C(=O)O`
5

Data credit: PubChem BioAssay AID1347420
